Below, each entry is listed alongside its reported activation.
# protocolText: qHTS assay for small molecule activators of the nuclear factor-kappa B (NF-kB) signaling pathway (AID 651749); also: % of control where 0% means no effect
# conditionParameters: NF-kB-bla ME-180 cells, beta-lactamase FRET ratio, 16 h; stronger effect = higher value
Results filed as inconclusive are left out.
Give your result in % as a bare value.

Study these solved cases before continuing.
[
  {
    "compound": "OC(c1ccc(Cl)cc1)(c1ccc(Cl)cc1)C(Cl)(Cl)Cl",
    "valueUnit": "%",
    "reading": -0.969
  },
  {
    "compound": "CCOP(=S)(OCC)Oc1nc(Cl)n(C(C)C)n1",
    "valueUnit": "%",
    "reading": 1.85
  },
  {
    "compound": "CCNc1nc(NC(C)C)nc(SC)n1",
    "valueUnit": "%",
    "reading": -1.51
  }
]

[ask] I have this compound here, FC(F)(F)c1ccc(OCCCOc2c(Cl)cc(OCC=C(Cl)Cl)cc2Cl)nc1 , and I need its recorded activation.
[reply] 0.158

[ask] Field request: activation | item: Cn1cc(-c2ccccc2)c(=O)c(-c2cccc(C(F)(F)F)c2)c1
[reply] -0.874

[ask] // query activation value for entry ClC1=C(Cl)C2(Cl)C3C4OC4C(Cl)C3C1(Cl)C2(Cl)Cl (stereo unspecified)
[reply] 4.48

====

# protocolText: Cellular Toxicity (caspase-3) H-4-II-E (AID 663);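 also: cells exposed to compound for 16 hr before readout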
# conditionParameters: H-4-II-E rat hepatoma, scaled: DMSO 0%, 100 µM tamoxifen 100%; at 92.2 µM (top of the series)
Inconclusive results are not listed.
property: caspase-3 activation (%)
Give just the numeric value; % need not be written.

Answered examples (5):
[
  {
    "molecule": "CC(=O)[O-].CC(=O)[O-].O.O.[Cd+2]",
    "valueUnit": "%",
    "caspase-3 activation": 0.407
  },
  {
    "molecule": "COP(=O)(OC)O/C(=C\\Cl)c1cc(Cl)c(Cl)cc1Cl",
    "valueUnit": "%",
    "caspase-3 activation": 2.54
  },
  {
    "molecule": "FC(F)(F)c1ccc(Cl)cc1",
    "valueUnit": "%",
    "caspase-3 activation": 1.12
  },
  {
    "molecule": "c1ccc2cc3c(cc2c1)-c1cccc2cccc-3c12",
    "valueUnit": "%",
    "caspase-3 activation": 0.959
  },
  {
    "molecule": "[Cd+2].[Cl-].[Cl-]",
    "valueUnit": "%",
    "caspase-3 activation": -2.46
  }
]

# next molecule below
[ask] Can you share its caspase-3 activation? I mean this molecule: N#CSCSC#N
[reply] -3.87

====

# Tested on: DIV17
# protocolText: qHTS profiling for inhibitors of Plasmodium falciparum proliferation (AID 504749); also: nearly all actives have a fitted effect of over 60% in size; also: potency is read from the fitted curve at half-maximal effect
# conditionParameters: P. falciparum in erythrocytes, SYBR Green DNA, 72 h; series mostly up to 28.7 µM
Records with an inconclusive call do not appear. Activity calls are given as the source filed them. Calls follow the shape of the dose curve; as a rule, active = well fitted inhibition curve with a large enough effect; inconclusive = small, poorly fitted or top-dose-only effect; inactive = flat fitted curve, though single readings scatter.
property: Potency

[
  {
    "molecule": "C=C1CC2C(CC[C@]3(C)C(=O)CCC23)[C@]2(C)C=CC(=O)C=C12 (stereo partly specified)",
    "reading": "inactive"
  },
  {
    "molecule": "C#C[C@]1(O)CC[C@H]2[C@@H]3CCC4=CC(=O)CCC4(C)[C@H]3CCC21C (stereo partly specified)",
    "reading": "inactive"
  },
  {
    "molecule": "COC(C(=O)C(O)C(C)O)C1Cc2cc3cc(OC4CC(OC5CC(O)C(OC)C(C)O5)C(OC(C)=O)C(C)O4)c(C)c(O)c3c(O)c2C(=O)C1OC1CC(OC2CC(OC3CC(C)(O)C(OC(C)=O)C(C)O3)C(O)C(C)O2)C(O)C(C)O1 (stereo unspecified)",
    "reading": "2.69 µM (active)"
  },
  {
    "molecule": "C[C@]12CCC3C(CCC4=C(Cl)C(=O)CC[C@@]43C)C1CCC2O (stereo partly specified)",
    "reading": "inactive"
  },
  {
    "molecule": "CCC/C=C/C=C/C(=O)OC1/C(=C/C(=O)OC)CC2CC(C(C)O)OC(=O)CC(O)CC3CC(OC(C)=O)C(C)(C)C(O)(CC4C/C(=C/C(=O)OC)CC(/C=C\\C(C)(C)C1(O)O2)O4)O3 (stereo unspecified)",
    "reading": "0.953 µM (active)"
  }
]

Now look at this one.
[ask] Which measured Potency value corresponds to COc1ccc2c3c1O[C@H]1[C@@H](O)C=C[C@H]4C(C2)NCCC341 (stereo partly specified) ?
[reply] inactive

====

// reported activity change % (negative = inhibition) per item
# targetOfAssay: Thyroid hormone receptor beta (Homo sapiens) (UniProt P10828)
# Sequence (P10828 whole entry, looked up): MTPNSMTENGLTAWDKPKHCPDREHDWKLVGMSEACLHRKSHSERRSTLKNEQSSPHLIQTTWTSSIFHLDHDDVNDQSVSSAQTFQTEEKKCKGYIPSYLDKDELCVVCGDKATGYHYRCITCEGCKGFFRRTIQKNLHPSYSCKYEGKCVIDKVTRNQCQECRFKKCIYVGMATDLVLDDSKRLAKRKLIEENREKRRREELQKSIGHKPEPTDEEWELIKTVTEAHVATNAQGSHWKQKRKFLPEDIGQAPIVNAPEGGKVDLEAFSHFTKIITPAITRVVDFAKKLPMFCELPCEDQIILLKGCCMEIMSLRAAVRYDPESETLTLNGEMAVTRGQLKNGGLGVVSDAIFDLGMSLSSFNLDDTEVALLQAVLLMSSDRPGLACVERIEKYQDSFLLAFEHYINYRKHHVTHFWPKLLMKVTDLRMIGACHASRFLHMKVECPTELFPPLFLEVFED
# protocolText: qHTS assay for small molecule antagonists of thyroid hormone receptor beta signaling (AID 588547);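 also: cells stimulated with 0.4 nM T3 agonist during compound exposure; % is scaled to controls: 0 for no effect and ±100 for the full control effect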
# conditionParameters: TR-UAS-bla HEK293, beta-lactamase ratio, antagonist mode, 18 h
Results filed as inconclusive are left out.
The answer is to be given in %; state only the numeric part.

[
  {
    "compound": "CC(=O)[C@H]1[C@H](C#N)C[C@H]2[C@@H]3CC=C4C[C@@H](O)CC[C@]4(C)[C@H]3CC[C@@]21C",
    "reading": 6.3
  }
]

Kindly consider the entry below.
[ask] GET /values?readout=activity change % (negative = inhibition)&system=Thyroid hormone receptor beta (Homo sapiens) (UniProt P10828)&item= O=P(O)(O)CN(CP(=O)(O)O)CP(=O)(O)O
[reply] -9.36

====

# Test system: P93_24
# protocolText: qHTS profiling for inhibitors of Plasmodium falciparum proliferation (AID 504749); also: nearly all actives have a fitted effect of over 60% in size
# conditionParameters: P. falciparum in erythrocytes, SYBR Green DNA, 72 h; series mostly up to 28.7 µM
Inconclusive results are not listed. Calls of active or inactive are those of the source. The call rests on the fitted dose curve; in most records, active means well fitted inhibition curve with a large enough effect; inconclusive means small, poorly fitted or top-dose-only effect; inactive means flat fitted curve, though single readings scatter.
Could you please pick one outcome from this set? 1.0 = active, 0.0 = inactive

Previously resolved entries follow.
[
  {
    "compound": "CCC/C=C/C=C/C(=O)OC1/C(=C/C(=O)OC)CC2CC(C(C)O)OC(=O)CC(O)CC3CC(OC(C)=O)C(C)(C)C(O)(CC4C/C(=C/C(=O)OC)CC(/C=C\\C(C)(C)C1(O)O2)O4)O3 (stereo not drawn)",
    "classification": 1.0
  },
  {
    "compound": "CCCCCCC(=O)O[C@H]1CC[C@H]2[C@@H]3CCC4CC(=O)C=C(C)[C@]4(C)[C@H]3CC[C@]12C (stereo partly drawn)",
    "classification": 0.0
  },
  {
    "compound": "CN1C2CCC1C(C(=O)O)C(OC(=O)c1ccccc1)C2 (stereo not drawn)",
    "classification": 0.0
  },
  {
    "compound": "CC12CCC3C4CCC(=O)C(O)=C4CCC3C1CCC2OC(=O)CCC1CCCC1 (stereo not drawn)",
    "classification": 0.0
  },
  {
    "compound": "CCCCCC(O)C1C(=O)OC(C)C(O)\\C=C/C=C\\C=C/C=C\\C=C(\\C)C(O)C(O)C(O)CC(O)CC(O)CC(O)CC(O)CC1O (stereo not drawn)",
    "classification": 0.0
  },
  {
    "compound": "C[C@@H](N)[C@@H](O)c1ccc(O)c(O)c1",
    "classification": 0.0
  },
  {
    "compound": "CC(=O)Oc1ccc2c3c1OC1[C@@H](OC(C)=O)C=C[C@H]4[C@H](C2)N(C)CC[C@]314 (stereo partly drawn)",
    "classification": 0.0
  }
]

Now examine the next entry.
[ask] Hi team, can someone confirm the assay call for CCCC(C)C1(CC)C(=O)NC(=S)NC1=O (stereo not drawn) ?
[reply] 0.0

====

# protocolText: qHTS assay for small molecule antagonists of retinoid X receptor alpha signaling (AID 588546);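 also: cells stimulated with 9-cis-retinoic acid as agonist; % is scaled to controls: 0 for no effect and ±100 for the full control effect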
# conditionParameters: HEK293T RXRa-UAS-bla, beta-lactamase ratio, antagonist mode; measured here: W530 green channel, cytotoxicity proxy
Results filed as inconclusive are left out.
max response overview
Give your result in % as a bare value.

[
  {
    "compound": "CCOP(=S)(OCC)SCSP(=S)(OCC)OCC",
    "property": "max response",
    "valueUnit": "%",
    "reading": -10.3
  }
]

[ask] Can you look up the measured max response of O=P(Oc1ccccc1)(Oc1ccccc1)Oc1ccccc1 for me?
[reply] 0.157

[ask] // returns reported max response for input CCOP(=O)(OCC)SCSP(=S)(OCC)OCC
[reply] -5.91

[ask] Would you mind telling me what max response value was observed for CCOP(=O)(SC(C)CC)SC(C)CC (stereo not drawn) ?
[reply] -3.17

[ask] For the compound shown here, CC1(C)CC/C(=C\c2ccc(Cl)cc2)C1(O)Cn1cncn1 (stereo not drawn) , give the reported max response.
[reply] 5.05

[ask] Dear colleague, I am looking for the recorded max response of the following compound: CCOP(=S)(Oc1cnc(C(C)(C)C)nc1)OC(C)C (stereo not drawn)
[reply] 10.2

[ask] Which measured max response value corresponds to CCOP(OCC)OCC ?
[reply] -5.06

[ask] May I ask what max response has been recorded for ClCc1ccccc1Cl ?
[reply] -6.52

[ask] What value of measured max response is listed for O=C=Nc1ccc(Cl)cc1 ?
[reply] -4.38

[ask] // returns reported max response for input N#Cc1cc(Br)c(O)c(Br)c1
[reply] -9.47

[ask] Reported max response, compound C#CC(C)(C)NC(=O)c1cc(Cl)cc(Cl)c1 : ____
[reply] -11.2

[ask] Can you share its max response? I mean this compound: [CH3][Hg][Cl]
[reply] -30.3
